These data points were gathered from BindingDB's records for doi:10.1021/jm9806650.

test: The compound was tested in vitro for inhibition of HIV-1 replication
pIC50: −log10 of the molar value.
Measured pIC50 values are reported for all entries that follow.

{"columns": ["Compound", "pIC50"],
 "data": [
  ["COc1ccc(-c2c3n(c4c(=O)oc5cc(OS(=O)(=O)O)c(OC)cc5c24)C(O)Cc2c-3cc(OC)c(OC)c2OC)cc1O (stereo not given)", 4.70],
  ["COc1ccc(-c2c3n(c4c(=O)oc5cc(O)c(OC)cc5c24)CCc2c-3cc(OC)c(OC)c2OC)cc1O", 4.74],
  ["COc1ccc(-c2c3c4cc(OC)c(O)cc4oc(=O)c3n3ccc4cc(O)c(OC)cc4c23)cc1O", 6.00],
  ["COc1ccc(-c2c3c4cc(OC)c(O)cc4oc(=O)c3n3ccc4c(OC)c(OC)c(OC)cc4c23)cc1O", 4.70],
  ["COc1ccc(-c2c3n(c4c(=O)oc5cc(OS(=O)(=O)O)c(OC)cc5c24)CCc2cc(OC)c(OC)cc2-3)cc1O", 4.92]
]}
